Measured TGI values are reported for all entries that follow.
# Test system: OVCAR-4 ovarian
# ASSAY_NAME: NCI tumour cell line growth inhibition, 48 h

# count of solved cases: 6
COMPOUND	TGI
CC(=O)C1=C(C)N(c2ccccc2)C2(O)C=CC(=O)C3=C(O)c4ccccc4C(=O)C312 (stereo not given)	72.1 µM
CSc1nc(N)c2c(n1)NC(c1ccccc1)C1CCc3ccccc3C1=N2 (stereo not given)	> 100 µM
Nc1[nH]c(=S)c2c(N)n[nH]c2c1C(=O)Nc1ccc(Cl)cc1	> 100 µM
COc1cc(NC(C)CCCN)c2ncccc2c1Sc1ccc(Cl)cc1 (stereo not given)	3.1 µM
Brc1ccc(-c2cc(-c3ccc4c(c3)OCO4)c(-c3cccs3)n2Cc2ccccc2)cc1	> 100 µM
O[C@H]1[C@H](O)[C@@H](Cn2nnc(-c3ccccc3)c2-c2ccccc2)OCO[C@@H]1Cn1nnc(-c2ccccc2)c1-c1ccccc1	26.9 µM

Input: Look up and report measured TGI (OVCAR-4 ovarian) for the following compound: Cc1ncc(-c2ccnc(Nc3ccc(S(C)(=O)=O)cc3)n2)n1C(C)C
Output: > 8.73 µM

Input: Look up and report measured TGI (OVCAR-4 ovarian) for the following compound: Clc1ccc(C2=NOC3C4CCC(C4)C23)cc1 (stereo not given)
Output: > 100 µM
